assay: Cytotoxicity against human THP1 cells after 72 hrs by MTT assay; assay type: cell-based; conditions: THP-1 cells, read-out: NOAEL
parameter: MNTC at 72 h (µM)

>  <compoundSmiles>
COc1ccc2c(=O)c(O)c(-c3ccc(OC)c(OC)c3)oc2c1

>  <readingUnit>
µM

>  <experimentalResult>
25

$$$$
>  <compoundSmiles>
COc1ccc(-c2oc3cc(OC)ccc3c(=O)c2O)cc1

>  <readingUnit>
µM

>  <experimentalResult>
10

$$$$
>  <compoundSmiles>
COc1cccc(-c2oc3ccc(OC)cc3c(=O)c2O)c1

>  <readingUnit>
µM

>  <experimentalResult>
10

$$$$
